Target: human serum albumin (human) (UniProt P02768)
Sequence (P02768 25-609 limits assumed): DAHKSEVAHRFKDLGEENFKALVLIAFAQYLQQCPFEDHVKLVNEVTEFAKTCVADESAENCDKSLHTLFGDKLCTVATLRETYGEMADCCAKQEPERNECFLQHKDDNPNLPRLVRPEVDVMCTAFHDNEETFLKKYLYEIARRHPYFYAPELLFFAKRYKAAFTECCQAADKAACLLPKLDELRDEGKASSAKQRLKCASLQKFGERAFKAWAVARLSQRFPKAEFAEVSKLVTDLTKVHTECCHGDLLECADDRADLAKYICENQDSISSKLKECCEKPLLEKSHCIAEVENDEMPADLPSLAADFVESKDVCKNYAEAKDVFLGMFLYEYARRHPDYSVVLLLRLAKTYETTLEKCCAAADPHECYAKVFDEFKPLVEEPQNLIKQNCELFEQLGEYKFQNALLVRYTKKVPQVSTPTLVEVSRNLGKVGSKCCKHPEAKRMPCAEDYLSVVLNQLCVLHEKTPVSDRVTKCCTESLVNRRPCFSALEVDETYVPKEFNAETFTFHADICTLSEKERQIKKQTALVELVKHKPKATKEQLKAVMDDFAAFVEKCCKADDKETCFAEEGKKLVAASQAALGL
Experiment: SPR, HSA immobilised on the chip, pH 7.3, 1:1 Langmuir fit
Where no end group is shown, it is not given here.
measurement name: Kd (nM)

Known Kd results, listed for orientation:
[
  {
    "binder": "LAEAKVLALKELDKYGISNYYKNLINNAKTIEGVKALKEAIVAA (designed binder, part only; not given: ED-B binding domain, linkers, tags, part only) [215670]",
    "measurement name": "Kd",
    "value observed": 3.4
  },
  {
    "binder": "LAEAKVLAIKELDKAGISDYYFNLINNAKTVDGVKALKAQIVAA (designed binder, part only; not given: ED-B binding domain, linkers, tags, part only) [215037]",
    "measurement name": "Kd",
    "value observed": 19.9
  },
  {
    "binder": "LAEAKVLALKELDKYGISNYYKNLINNAKTIEGVEALKAQIVAA (designed binder, part only; not given: ED-B binding domain, linkers, tags, part only) [215659]",
    "measurement name": "Kd",
    "value observed": 13.4
  },
  {
    "binder": "LAEAKVLAIKELDKAGISNYYFNLINNAKTVEGVKALKAQIVAA (designed binder, part only; not given: ED-B binding domain, linkers, tags, part only) [219089]",
    "measurement name": "Kd",
    "value observed": 12.5
  }
]

[P] LAEAKVLALKELDKYGISNYYKNLINNAKTIEGVKALKDQIVAA (designed binder, part only; not given: ED-B binding domain, linkers, tags, part only) [215661]
[Q] LAEAKVLAIKELDKAGISDYYFNLINNAKTIEGVKALKAQIVAA (designed binder, part only; not given: ED-B binding domain, linkers, tags, part only) [215039]
// which entry reports the smaller Kd, P or Q ? Mark your selection by writing its label.
Q
(Q: 2.2 nM, P: 3.8 nM)

[P] LAEAKVLALKELDKYGISNYYKNLINNAKTVEGVKALKEAIVAALP (designed binder, part only; not given: ED-B binding domain, linkers, tags, part only, also: fusion protein, linkers and tags not given here) [219087]
[Q] LAEAKVLALKELDKYGISNYYKNLINNAKTIEGVKALKDEIVAA (designed binder, part only; not given: ED-B binding domain, linkers, tags, part only) [215671]
[R] LAEAKVLALKELDKYGISNYYKNLINNAKTIEGVEALKDAIVAA (designed binder, part only; not given: ED-B binding domain, linkers, tags, part only) [215673]
Put these in order: smallest Kd first, largest last. # output: labels, in the requested order
P, R, Q
(P: 1.4 nM, R: 3.3 nM, Q: 7.3 nM)

[P] LAEAKVLALKELDKYGISNYYKNLINNAKTIEGVKALKDEIVAA (designed binder, part only; not given: FAP binding domain, linkers, tags, part only) [221215]
[Q] LAEAKVLAIKELDKAGISNYYFNLINNAKTIEGVKALKAQIVAA (designed binder, part only; not given: ED-B binding domain, linkers, tags, part only) [215055]
[R] LAEAKVLALKELDKYGISNYYKNLINNAKTIEGVKALKAQIVAA (designed binder, part only; not given: ED-B binding domain, linkers, tags, part only) [215652]
Put these in order: smallest Kd first, largest last. # output: labels, in the requested order
Q, R, P

[I] LAEAKVLALKELDKYGISNYYKNLINNAKTIEGVKALKAAIVAA (designed binder, part only; not given: ED-B binding domain, linkers, tags, part only) [215663]
[II] LAEAKVLALKELDKYGISNYYKNLINNAKTVEGVKALKEAIVAA (designed binder, part only; not given: FAP binding domain, linkers, tags, part only) [221191]
Rank I against II by their Kd values and give the higher one. Mark your selection by writing its label.
II
(II: 3.8 nM, I: 2.6 nM)
